- measuredOn: T1, human GIP receptor (human, UniProt P48546 22-466)
- T1 sequence (looked up): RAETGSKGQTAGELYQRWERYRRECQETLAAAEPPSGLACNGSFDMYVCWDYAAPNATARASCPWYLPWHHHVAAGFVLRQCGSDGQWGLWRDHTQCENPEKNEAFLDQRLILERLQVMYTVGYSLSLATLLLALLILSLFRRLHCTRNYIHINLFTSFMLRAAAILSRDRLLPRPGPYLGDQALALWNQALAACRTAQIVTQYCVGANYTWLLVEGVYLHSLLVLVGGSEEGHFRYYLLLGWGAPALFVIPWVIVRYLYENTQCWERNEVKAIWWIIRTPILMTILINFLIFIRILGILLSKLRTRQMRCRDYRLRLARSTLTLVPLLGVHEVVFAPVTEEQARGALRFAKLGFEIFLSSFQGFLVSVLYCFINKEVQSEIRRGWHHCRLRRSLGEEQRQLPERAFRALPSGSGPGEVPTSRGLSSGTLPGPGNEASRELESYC
- protocolNotes: cell-based or functional assay
*1 amine or outer side, *2 acyl side, *3 side chain or, on linkers, in order; H or OH if unused. Where no end group is shown, it is not given here. Side-chain parts run from the residue outwards. [ ]: non-standard residue; d: D form. The star is where a group is joined. C20 diacid = O=C(O)CCCCCCCCCCCCCCCCCCC(=O)*; C18 diacid = O=C(O)CCCCCCCCCCCCCCCCC(=O)*; γGlu = O=C(O)[C@H](CCC(=O)[*:2])N[*:1]; εLys = N[C@@H](CCCCN[*:1])C(=O)[*:2]; Aib = CC(C)(N)C(=O)O
Reported EC50, CreLuc reporter, 0.5% hP values are given for each entry in this list.

binder	EC50, CreLuc reporter, 0.5% hP [nM]
YXEGTFTSDFSIXLEKQAQXAFVRHLINKXTRQRY (Aib at 2, 13, 20, 30; Lys29 epsilon-amino acylated with C20DA-gGlu-gGlu-gGlu-gGlu-gGlu-gGlu-eLys; C-terminal amide) [Compound 15]	0.6
YXEGTFTSDYSIXLEKIAQXAFVRHLINKXTRQRY (Aib at 2, 13, 20, 30; Lys29 epsilon-amino acylated with C18DA-gGlu-gGlu-gGlu-gGlu-gGlu-gGlu-eLys; C-terminal amide) [Compound 24]	1
YXEGTFTSDYSIXLEKQAQXAFVRHLINKLTRQRY (Aib at 2, 13, 20; Lys29 epsilon-amino acylated with C18DA-gGlu-gGlu-gGlu-gGlu-gGlu-AHX; C-terminal amide) [Compound 69]	0.2
YXEGTFTSDLSIXLEKQAQXAFIRHLINKXTRQRY (Aib at 2, 13, 20, 30; Lys29 epsilon-amino acylated with C20DA-gGlu-gGlu-gGlu-gGlu-gGlu-gGlu-eLys; C-terminal amide) [Compound 21]	0.2
Y[Aib]EGTFTSDYSI[Aib]LEKQAQ[Aib]AFVRHLINK([εLys-γGlu-γGlu-γGlu-γGlu-γGlu-γGlu-γGlu-C20 diacid])[Aib]TRQRY-NH2 [Compound 35]	0.7
YXEGTFTSDYSIXLDKQAQXAFVRHLINKXTRQRY (Aib at 2, 13, 20, 30; Lys29 epsilon-amino acylated with C20DA-gGlu-gGlu-gGlu-gGlu-gGlu-gGlu-eLys; C-terminal amide) [Compound 74]	0.5
YXEGTFTSDYSIXLEKQAQXAFVRHLINKITRQRY (Aib at 2, 13, 20; Lys29 epsilon-amino acylated with C18DA-gGlu-gGlu-gGlu-gGlu-gGlu; C-terminal amide) [Compound 41]	0.3
YXEGTFTSDYSIXLEKQAYXAFVRHLINKXTRQRY (Aib at 2, 13, 20, 30; Lys29 epsilon-amino acylated with C18DA-gGlu-gGlu-gGlu-gGlu-gGlu-gGlu-eLys; C-terminal amide) [Compound 84]	5
YXEGTFTSDYSIXLEKQAQXEFVRHLINKXTRQRY (Aib at 2, 13, 20, 30; Lys29 epsilon-amino acylated with C18DA-gGlu-gGlu-gGlu-gGlu-gGlu-AHX; C-terminal amide) [Compound 14]	0.1
YXEGTFTSDYSIXLDAQAQXAFVRHLINKXTRQRY (Aib at 2, 13, 20, 30; Lys29 epsilon-amino acylated with C18DA-gGlu-gGlu-gGlu-gGlu-gGlu-gGlu-eLys; C-terminal amide) [Compound 55]	0.4
YXEGTFTSDLSIXLEKQAQXAFVRHLINKXTRQRY (Aib at 2, 13, 20, 30; Lys29 epsilon-amino acylated with C20DA-gGlu-gGlu-gGlu-gGlu-gGlu-AHX-AHX; C-terminal amide) [Compound 1]	0.2
YXEGTFTSDYSIXLEKQAQXAFIRHLINKXTRQRY (Aib at 2, 20, 30; aMeL at 13; Lys29 epsilon-amino acylated with C20DA-gGlu-gGlu-gGlu-gGlu-gGlu-gGlu-eLys; C-terminal amide) [Compound 53]	0.1
YXEGTFTSDYSIXLDKQAQXAFIRHLINKXTRQRY (Aib at 2, 20, 30; aMeL at 13; Lys29 epsilon-amino acylated with C20DA-gGlu-gGlu-gGlu-gGlu-gGlu-gGlu-eLys; C-terminal amide) [Compound 22]	0.1
YXEGTFTSDLSIXLEKQAQXAFVRHLINKXTRQRY (Aib at 2, 13, 20, 30; Lys29 epsilon-amino acylated with C20DA-gGlu-gGlu-gGlu-gGlu-gGlu-gGlu-eLys; C-terminal amide) [Compound 20]	0.4
Y[Aib]EGTFTSDYSI[Aib]LEEEAQ[Aib]EFVRHLINK([γGlu-γGlu-γGlu-γGlu-C18 diacid])[Aib]TRQRY-NH2 [Compound 64]	0.5
YXEGTFTSDYSIXLEKEAQXAFVRHLINKXTRQRY (Aib at 2, 13, 20, 30; Lys29 epsilon-amino acylated with C20DA-gGlu-gGlu-gGlu-gGlu-gGlu-gGlu-eLys; C-terminal amide) [Compound 28]	19.3
YXEGTFTSDYSIXLELQAQXAFVRHLINKXTRQRY (Aib at 2, 13, 20, 30; Lys29 epsilon-amino acylated with C18DA-gGlu-gGlu-gGlu-gGlu-gGlu-gGlu-eLys; C-terminal amide) [Compound 65]	0.7
Y[Aib]EGTFTSDLSI[Aib]LEKQAQ[Aib]AFVRHLINK([γGlu-εLys-γGlu-γGlu-γGlu-γGlu-γGlu-C20 diacid])[Aib]TRQRY-NH2 [Compound 60]	0.3

The measurements presented in this section are drawn from patent US20250382344A1.
